Where do the numbers come from? From the supplement of paper PMC10307832.

system: NCI-H1975; test: relative viability (nuclei count vs DMSO), 5 days (fraction); higher = more cells survive; conditions: first compound 0.08 µM
Assay metric: relative viability
Simply state the number, no unit and no words.

Compound	Result number
O=c1[nH]c2ccccc2n1C1CCN(CCCC(c2ccc(F)cc2)c2ccc(F)cc2)CC1 [Pimozide] + C[C@]1(O)C[C@@H](c2nc(-c3ccc4ccc(-c5ccccc5)nc4c3)c3c(N)nccn32)C1 [Linsitinib] (partner 1 µM)	0.95

// below: relative viability requested for another compound
Can you look up the measured relative viability of O=c1[nH]c2ccccc2n1C1CCN(CCCC(c2ccc(F)cc2)c2ccc(F)cc2)CC1 [Pimozide] + Cc1nc(Nc2ncc(C(=O)Nc3c(C)cccc3Cl)s2)cc(N2CCN(CCO)CC2)n1 [Dasatinib] (partner 0.075 µM) for me?
0.415

###

test system: LXF-289; assay: relative viability (nuclei count vs DMSO), 5 days (fraction); higher = more cells survive; settings: first compound 0.02 µM
Measured relative viability by item
Answer as a number with no unit attached.

Molecule	relative viability
CC(=O)O[C@@]12CO[C@@H]1C[C@H](O)[C@@]1(C)C(=O)[C@H](O)C3=C(C)[C@@H](OC(=O)[C@H](O)[C@@H](NC(=O)OC(C)(C)C)c4ccccc4)C[C@@](O)([C@@H](OC(=O)c4ccccc4)[C@H]21)C3(C)C [Docetaxel] + Cc1nc(Nc2ncc(C(=O)Nc3c(C)cccc3Cl)s2)cc(N2CCN(CCO)CC2)n1 [Dasatinib] (partner 0.075 µM)	0.0314
CC(=O)O[C@@]12CO[C@@H]1C[C@H](O)[C@@]1(C)C(=O)[C@H](O)C3=C(C)[C@@H](OC(=O)[C@H](O)[C@@H](NC(=O)OC(C)(C)C)c4ccccc4)C[C@@](O)([C@@H](OC(=O)c4ccccc4)[C@H]21)C3(C)C [Docetaxel] + C[C@@H](Oc1cc(-c2cnn(C3CCNCC3)c2)cnc1N)c1c(Cl)ccc(F)c1Cl [Crizotinib] (partner 1 µM)	0.139
CC(=O)O[C@@]12CO[C@@H]1C[C@H](O)[C@@]1(C)C(=O)[C@H](O)C3=C(C)[C@@H](OC(=O)[C@H](O)[C@@H](NC(=O)OC(C)(C)C)c4ccccc4)C[C@@](O)([C@@H](OC(=O)c4ccccc4)[C@H]21)C3(C)C [Docetaxel] + NC(=O)Nc1cc(-c2cccc(F)c2)sc1C(=O)N[C@H]1CCCNC1 [AZD7762] (partner 0.2 µM)	0.0873

Fill blank: measured relative viability of the molecule CC(=O)O[C@@]12CO[C@@H]1C[C@H](O)[C@@]1(C)C(=O)[C@H](O)C3=C(C)[C@@H](OC(=O)[C@H](O)[C@@H](NC(=O)OC(C)(C)C)c4ccccc4)C[C@@](O)([C@@H](OC(=O)c4ccccc4)[C@H]21)C3(C)C [Docetaxel] + O=C(c1cc(Cc2n[nH]c(=O)c3ccccc23)ccc1F)N1CCN(C(=O)C2CC2)CC1 [Olaparib] (partner 8 µM) is ____.
0.0839

For the molecule CC(=O)O[C@@]12CO[C@@H]1C[C@H](O)[C@@]1(C)C(=O)[C@H](O)C3=C(C)[C@@H](OC(=O)[C@H](O)[C@@H](NC(=O)OC(C)(C)C)c4ccccc4)C[C@@](O)([C@@H](OC(=O)c4ccccc4)[C@H]21)C3(C)C [Docetaxel] + CC(C)C[C@H](NC(=O)[C@H](Cc1ccccc1)NC(=O)c1cnccn1)B(O)O [Bortezomib] (partner 0.002 µM) , what relative viability is on record?
0.0991

Need relative viability, item CC(=O)O[C@@]12CO[C@@H]1C[C@H](O)[C@@]1(C)C(=O)[C@H](O)C3=C(C)[C@@H](OC(=O)[C@H](O)[C@@H](NC(=O)OC(C)(C)C)c4ccccc4)C[C@@](O)([C@@H](OC(=O)c4ccccc4)[C@H]21)C3(C)C [Docetaxel] + CC(=O)c1c(C)c2cnc(Nc3ccc(N4CCNCC4)cn3)nc2n(C2CCCC2)c1=O [Palbociclib] (partner 0.5 µM)
0.131
